Test system: cultured PBMCs of the allergic donors
Test: ELISPOT of IL-5 or IFNg production by cultured PBMCs of TG allergic donors in response to peptide
Assay type: cell-based, human
Settings: Table 6; PP peptides recognized by T cells of grass allergic donors (n=20)

molecule	No of PP & Th+ peptides per NTGA
NTGA 19: Phl p wild type sequence, Table 2 (protein, Phleum Pratense) GVVATTDAVEACTGVNVAVMVGGFPRKEGMERKDVMSKNVSIYKSQASALEAHAAPNCKVLVVANPANTNALILKEFAPSIPEKNISCLTRLDHNRALGQVSERLNVQVSDVKNVLIWGNHSSSQYPDVNHATVKTSSGEKPVRELVQDDEWLNGPFIATVQQRGAAIIKARKLSSALSAASSACDHIRDWVLGTPEGTFVSMGVYSDGSYGVPAGLIYSFPVTCSGGEWTIVQGLPIDEFSRKKMDATAQELSEEKALAYSCL	0
NTGA 51: Phl p wild type sequence, Table 2 (protein, Phleum Pratense) MSPAEPTREESVYMAKLAEQAERYEEMVEFMERVAKATGGAGPGEELSVEERNLLSVAYKNVIGARRASWRIISSIEQKEEGRGNDAHATTIRSYRSKIEAELAKICDGILALLDSHLVPSAGAAESKVFYLKMKGDYHRYLAEFKSGAERKEAAESTMNSYKAAQDIALADLAPTHPIRLGLALNFSVFYYEILNSPDRACNLAKQAFDEAISELDSLGEESYKDSTLIMQLLRDNLTLWTSDTNEDGGDEIKEAPAPKESGD	1
NTGA 3: Phl p wild type sequence, Table 2 (protein, Phleum Pratense) MDDHKEHKEKEHTGGNPEVNEEEEEDEEAKRAVLLGPQVPLKEQLELDKDDESLRRWKEQLLGQVDTEQLGETAEPEVKVVDLTILSPDRPDLVLPIPFVADEKGYAFALKDGSTYSFRFSFIVSNNIVSGLKYTNTVWKTGVRVENQKMMLGTFSPQPEPYIYVGEEETTPAGIFARGSYSAKLKFVDDDGKVYLEMSYYFEIRKDWPTGQ	0

The reported numbers originate from patent US20160287696A1.
